src = the nanobody polyreactivity screen of Harvey et al. (2022)

- test: yeast display, Sf9 membrane polyspecificity reagent, FACS + sequencing; frameworks hold sequencing errors
reported.metric: polyreactivity (PSR sort gate)

QVQLVESGGGLVQAGGSLRLSCAASGRTFTPNGMGWYRQAPGKERELVAAITYGGGITDYADSVKGRFTTSRDNAKNTVYLQMNSLKPEDTAVYYCAATTLSFEGGKYWSKYDYWGQGTQVTVSS | low polyreactivity
QVQLVESGGGLVQAGGSLRLSCAASGFTFSDHAMGWYRQAPGKERELVAAISRSRGNTHYADSVKGRFTISRDNAKNTVYLQMNSLKPEDTAVYYCNAVQGQGQYEYWGQATQVTVSS | high polyreactivity
QVQLVESGGGLVQAGGSLRLSCAASGRIFPQNAMGWYRQAPGKERELVAAITSDGAITYYADSVKGRFTISRDNAKNTVYLQMNSLKPEDTAVYYCATQGRYYDYDYWGQGTQVTVSS | low polyreactivity
QVQLVESGGGLVQAGGSLRLSCAASGLTLVTYAMGSYRQAPGKERELVAAINSGGSTNYADSVKGRFTISRDNAKNTVYLQMNSLKPEDTAVYYCNADRVSPATYDYWGQGTQVTVSS | low polyreactivity
QVQLVESGGGLVQAGGSLRLSCAASGSIFSVYAMGWYSQAPGKEREVVAASTSSGGSTYYADSVKGRFTISRDNAKNTVHFQMNSLKPEDTAVYYCAADKYVRRLSWYRYGYWGQGTQVTVSS | high polyreactivity

Turning now to a further sequence:
Asked: So what does the record say about polyreactivity (PSR sort gate) for `QVQLVESGGGLVHAGGSLRLSCAASGKIFGLYAMGWYRKAPGKERELVAAISYRTDSTYADSVKGRFTISRDNAKNTVYLQMNSLKPEDTAVYYCAADLRVSVRYYYWGQGTQVTVSS` ?
Given back: low polyreactivity

---

- test: yeast display, Sf9 membrane polyspecificity reagent, FACS + sequencing; frameworks hold sequencing errors
reported.metric: polyreactivity (PSR sort gate)

Recorded polyreactivity (PSR sort gate), per entry:
QVQLVESGGGLVQAGGSLRLSCAASGIIFRYYAMGWYRQAPGKERELVARITSRAGRTYYADSVKGRFTISRDYAKYTVYLQMNSLKPEDTAVYYCAARLYGRYGYWGQGTQVTVSS | high polyreactivity
QVQLVESGGGLVQAGGSLRLSCAASGRTFDLNVMGWSRQAPGKERELVAASSFSGGSTYYADSVKGRFTLSRDNAKNTVYLQMNSLKPEDTAVYYCAADGYVRPPEMDYWGQGTQVTVSS | high polyreactivity
QVQLVESGGCLVQAGGSLRLSCAASGSIFGWYDMGWYRQARGYERELVAAMTSDGSTNYADSVKGRFTISRDNAKNTVYLQKNSLKPEDTAVYYCAQDGWYYYYPYDYWGQGTQVTVSS | low polyreactivity
QVQLGESGGGLVQAGGSLRLTCAASGYIFISDAMGLYRQAHGKEREFVAAITGDGGSTYADSVKGRFTISRYNAKNTVYLQMNSLKPEDTAVYYCAAEGQLFDLYDYWGQGTEVTVSS | low polyreactivity

Asked: Look at this sequence and give its reported polyreactivity (PSR sort gate). `QFQLVETGGGLVQAGGSLRLSCAASGSILGFNAMRWYIQAPGKESELGAAIRWSGDSTYADSVKGLFTMSRDNAKNTVYLQMNSLTQEDPSFYYCNARDTSYANWLSHFYYWGQGTQVTVSW`
Given back: low polyreactivity
